- SYSTEM: recombinant Pseudomonas aeruginosa LpxC (Pseudomonas aeruginosa, UniProt P47205)
- Construct: purchased Signalway Antibody AP74647-2
- Sequence (P47205 whole entry): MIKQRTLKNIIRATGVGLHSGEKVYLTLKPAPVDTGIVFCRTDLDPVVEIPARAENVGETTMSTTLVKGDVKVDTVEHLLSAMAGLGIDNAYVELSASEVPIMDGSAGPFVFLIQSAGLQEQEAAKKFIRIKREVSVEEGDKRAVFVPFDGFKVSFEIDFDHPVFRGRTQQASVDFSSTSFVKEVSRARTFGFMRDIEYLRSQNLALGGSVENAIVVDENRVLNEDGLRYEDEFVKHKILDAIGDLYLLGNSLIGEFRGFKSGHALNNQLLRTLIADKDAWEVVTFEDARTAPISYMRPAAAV
- EXPERIMENTAL_DETAILS: Inhibition of enzymatic activity of recombinant Pseudomonas aeruginosa LpxC in vitro
- Type: biochemical
- EXPERIMENTAL_SETUP: 5 nM LpxC; substrate UDP-3-O—(R-3-hydroxydecanoyl)-GlcNAc; 25 °C, 120 minutes; fluorescamine readout
What pIC50 was measured for each of the following?
The read-out pIC50 is expressed as -log10 of concentration in moles per litre.

I'd like to know its pIC50. The compound in question is C[C@H](O)c1nccn1Cc1cc(-c2ccc(C#CC3=CCN(C=O)CC3)cc2)on1 7.53

I am curious: what pIC50 value has been reported for C[C@H](O)c1nccn1Cc1cc(-c2ccc(C#CC3=CCN(C(=O)C4CCOCC4)CC3)cc2)on1 ? 7.73

# query: pIC50 of entry C[C@H](O)c1nccn1Cc1cc(-c2ccc(C#CC3CC4(C3)CN(C(=O)c3ncn[nH]3)C4)cc2)on1 7.83
